# System Name: Heat shock protein HSP 90-alpha (Homo sapiens) (UniProt P07900)
# Test Method Notes: Hsp90 inhibition measured as HER-2 degradation in MCF-7 cells
Let's look at some compounds and their measured pIC50.
// scale note: pIC50 = -log10(conc_M); give the bare number

Recorded results for 10 compounds are shown here.
COc1ccc(I)c(Sc2nc3c(N)ncnc3n2CCCNC(C)(C)C)c1 | 6.85
CCCCn1c(Sc2cc(OC)ccc2OC)nc2c(N)ncnc21 | 5.46
CCCCn1c(Cc2cc(OC)ccc2I)nc2c(N)ncnc21 | 5.30
COc1ccc(I)c(Sc2nc3c(N)ncnc3n2CCCNC(C)C)c1 | 6.74
C#CCCCn1c(Sc2cc(OC)ccc2I)nc2c(N)nc(F)nc21 | 6.44
CCC(CC)NCCCn1c(Sc2cc(OC)ccc2I)nc2c(N)ncnc21 | 6.68
CCC(C)NCCCn1c(Sc2cc(OC)ccc2I)nc2c(N)ncnc21 (stereo unspecified) | 6.68
CCCCn1c(Cc2cc(OC)ccc2OC)nc2c(N)ncnc21 | 4.92
CCCCn1c(Cc2cc(OC)ccc2Cl)nc2c(N)ncnc21 | 4.70
COc1ccc(I)c(Sc2nc3c(N)ncnc3n2CCC=C(C)C)c1 | 6.43

pIC50 lookup needed for CCCCn1c(Cc2cc(OC)ccc2Br)nc2c(N)ncnc21 , thanks.
5.10
